- Measured On: T1, hRET.mFc (human)
- T1 construct: also called dimeric human RET
- Measurement Notes: SPR Biacore T200, mAb capture, 25 C
Assay Endpoint: pKd
Reminder that pKd means the negative base-10 logarithm of the concentration expressed in mol/L.

Binder	Measured Result
H4H8056P (antibody, human IgG4, V domains shown, human IgG4 Fc (H4H prefix)) VH: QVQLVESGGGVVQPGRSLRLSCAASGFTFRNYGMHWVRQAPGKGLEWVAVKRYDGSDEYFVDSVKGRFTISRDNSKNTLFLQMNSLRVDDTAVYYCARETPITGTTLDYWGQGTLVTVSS VL: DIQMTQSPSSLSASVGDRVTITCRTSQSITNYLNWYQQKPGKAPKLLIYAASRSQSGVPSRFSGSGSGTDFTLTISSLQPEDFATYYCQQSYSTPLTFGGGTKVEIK	8.83

INPUT: Assign pKd to the following record: H4H8085P (antibody, human IgG4, V domains shown, human IgG4 Fc (H4H prefix)) VH: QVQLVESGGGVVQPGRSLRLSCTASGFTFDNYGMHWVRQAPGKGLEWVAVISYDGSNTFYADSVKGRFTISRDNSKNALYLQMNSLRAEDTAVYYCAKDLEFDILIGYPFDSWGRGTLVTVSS VL: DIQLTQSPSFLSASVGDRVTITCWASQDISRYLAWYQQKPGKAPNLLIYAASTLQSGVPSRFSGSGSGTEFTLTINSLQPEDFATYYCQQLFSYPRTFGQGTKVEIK
OUTPUT: 8.88

INPUT: Assign pKd to the following record: H4H8080P (antibody, human IgG4, V domains shown, human IgG4 Fc (H4H prefix)) VH: EVQLVESGGGLVQSGGSLRLSCVASGFTFSTYAMTWVRQAPGRGLEWVSAISGSGASTYYADSLKGRFTVSRDNSKNTLYLQMNSLRAEDTAVYYCSKDHRNYDSDYDMDVWGQGTTVTVSS VL: DIQMTQSPSSLSASVGDRVTITCRASQGIRNYLGWYQQKPGKAPKRLIYTASSLQSGVPSRFRGSGSGTEFTLTISSLQPEDFATYYCLQHNSYPYTFGQGTKLEIK
OUTPUT: 8.88

INPUT: Assign pKd to the following record: H4H8084P (antibody, human IgG4, V domains shown, human IgG4 Fc (H4H prefix)) VH: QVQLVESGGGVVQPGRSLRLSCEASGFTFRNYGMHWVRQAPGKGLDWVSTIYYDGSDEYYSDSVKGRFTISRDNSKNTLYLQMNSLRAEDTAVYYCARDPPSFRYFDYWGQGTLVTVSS VL: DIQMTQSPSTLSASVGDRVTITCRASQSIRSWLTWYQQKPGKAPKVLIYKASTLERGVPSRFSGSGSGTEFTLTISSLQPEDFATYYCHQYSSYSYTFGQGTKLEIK
OUTPUT: 9.55
